# Test system: HL-60(TB)
# assay_method_text: NCI60 antitumor screening
# Assay type: cell-based, human
# condition_parameters: 10 μM one-dose
Definition: the class of an entry is the range in class A = under 30%, class B = from 30% up to 50%, class C = 50% and over that contains its GI%.

compound: N#Cc1c(-c2ccc(F)cc2)nc(SCc2ccc(F)cc2)nc1N1CCOCC1 [4b]
category_label: class A
--
compound: N#Cc1c(Cl)nc(SCc2ccc([N+](=O)[O-])cc2)nc1-c1ccc(F)cc1 [3c]
category_label: class C
--
compound: N#Cc1c(-c2ccc(F)cc2)nc(SCc2ccc([N+](=O)[O-])cc2)nc1N1CCOCC1 [4c]
category_label: class A
--
compound: Cc1ccc(CSc2nc(-c3ccc(F)cc3)c(C#N)c(=O)[nH]2)cc1 [2d]
category_label: class B
--
compound: N#Cc1c(-c2ccc(F)cc2)nc(SCc2ccc(F)cc2)[nH]c1=O [2b]
category_label: class A
--
compound: N#Cc1c(-c2ccc(F)cc2)nc(SCc2ccccc2)nc1N1CCOCC1 [4a]
category_label: class B
--
compound: Cc1ccc(CSc2nc(Cl)c(C#N)c(-c3ccc(F)cc3)n2)cc1 [3d]
category_label: class C
--
compound: N#Cc1c(Cl)nc(SCc2ccccc2)nc1-c1ccc(F)cc1 [3a]
category_label: class B
